Source: ChEMBL document CHEMBL2439955

Each record here notes measured log10 IC50.
# target: 3',5'-cyclic-AMP phosphodiesterase 4B (Homo sapiens)
# Sequence (Q07343 whole entry): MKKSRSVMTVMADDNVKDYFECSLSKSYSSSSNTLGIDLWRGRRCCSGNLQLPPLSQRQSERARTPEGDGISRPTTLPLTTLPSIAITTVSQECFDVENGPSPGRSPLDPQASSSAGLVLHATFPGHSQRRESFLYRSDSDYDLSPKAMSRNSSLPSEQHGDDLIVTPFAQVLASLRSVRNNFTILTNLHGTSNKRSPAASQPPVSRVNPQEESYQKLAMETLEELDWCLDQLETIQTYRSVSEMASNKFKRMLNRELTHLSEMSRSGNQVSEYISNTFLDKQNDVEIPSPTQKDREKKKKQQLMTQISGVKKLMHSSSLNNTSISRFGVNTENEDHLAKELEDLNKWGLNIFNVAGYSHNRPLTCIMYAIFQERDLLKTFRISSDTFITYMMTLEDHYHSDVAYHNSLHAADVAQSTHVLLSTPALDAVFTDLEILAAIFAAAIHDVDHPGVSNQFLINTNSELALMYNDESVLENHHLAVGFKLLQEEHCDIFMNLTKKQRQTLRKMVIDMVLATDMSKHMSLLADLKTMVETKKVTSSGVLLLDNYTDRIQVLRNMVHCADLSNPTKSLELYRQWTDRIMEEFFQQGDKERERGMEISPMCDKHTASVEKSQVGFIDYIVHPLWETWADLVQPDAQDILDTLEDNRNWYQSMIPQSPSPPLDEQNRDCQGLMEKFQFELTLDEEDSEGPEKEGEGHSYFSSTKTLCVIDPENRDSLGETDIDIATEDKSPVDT
# assayComment: Inhibition of recombinant human PDE4B using cAMP as substrate after 30 mins
Plainly stated, the numbers are log10 of IC50 given in nM.

# example entries with known answers
1. NC(=O)c1cnc(-c2ccccc2)nc1Nc1ccc(CC(=O)NCC2CC2)cc1
1.20
2. CC(C)(C)CNC(=O)Cc1ccc(Nc2nc(-c3cncnc3)ncc2C(N)=O)cc1
2.04
3. CC(C)(C)CNC(=O)Cc1ccc(Nc2nc(-c3ccccc3)ncc2C(N)=O)cc1
0.92
4. CN(C)c1ncc(C(N)=O)c(Nc2ccc(CC(=O)NCC(C)(C)C)cc2)n1
1.20
5. O=C(O)Cc1ccc(Nc2nc(-c3ccccc3)nc3c2C(=O)NCC3)cc1
1.67
6. CC(C)(C)CNC(=O)Cc1ccc(Nc2nc(-c3cccnc3)ncc2C(N)=O)cc1
1.46
7. NC(=O)c1cnc(-c2ccccc2)nc1Nc1ccc(CC(=O)NO)cc1
0.85
8. CC(C)(C)CNC(=O)Cc1ccc(Nc2nc(N3CCCC3)ncc2C(N)=O)cc1
1.11

Lab note: measured log10 IC50 of NC(=O)c1cnc(-c2ccccc2)nc1Nc1ccc(CC(=O)O)cc1 was 2.30

Lab note: measured log10 IC50 of CC(C)CNC(=O)Cc1ccc(Nc2nc(-c3ccccc3)ncc2C(N)=O)cc1 was 1.04
